Where a name gives a salt, the structure may show the parent alone.
Reported melting point values for a set of compounds

compound | melting point
CCOC(=O)COc1ccc(C(=O)CN2Cc3cc(C(=N)N)ccc3C2=O)c(O)c1 (as salt: salt) [Example 41] | 195 to 196 °C
CC(C)OC(=O)COc1ccc(C(=O)CN2Cc3cc(C(=N)NC(=O)OCc4ccccc4)ccc3C2=O)cc1 (hydrate or solvate) [Example 8] | 156 to 158 °C
COC(=O)CSc1ccc(C(=O)CN2Cc3cc(C(=N)NO)ccc3C2=O)cc1 [Example 29] | 193 to 194 °C
N=C(N)c1ccc2c(c1)CN(CC(=O)c1ccc(OCC(=O)O)cc1)C2=O (as salt: hydrochloride) (hydrate or solvate) [Example 17] | > 250 °C (dec.)
CCOC(=O)COc1ccc(C(=O)CN2Cc3cc(C(=N)N)ccc3C2=O)cc1SCC (as salt: salt) (hydrate or solvate) [Example 33] | 185 to 186 °C
N=C(N)c1ccc2c(c1)CN(CC(=O)c1ccc(OCC(=O)OCc3ccccc3)cc1)C2=O (as salt: salt) (hydrate or solvate) [Example 16] | 190 °C (dec.)
CCOC(=O)COc1ccc(C(=O)CN2Cc3cc(NC(C)=N)ccc3C2=O)c(O)c1 (as salt: iodide) (hydrate or solvate) [Example 74] | 196 to 197 °C
CCOC(=O)COc1ccc(C(=O)CN2Cc3cc(C(=N)NO)ccc3C2=O)cc1 (hydrate or solvate) [Example 4] | 175 to 178 °C
CCOC(=O)CN1CCN(C(=O)CN2Cc3cc(C(=N)N)ccc3C2=O)CC1 (as salt: salt) [Example 66] | 211 to 212 °C
CCOC(=O)COc1ccc(C(=O)CN2Cc3cc(C(=N)NO)ccc3C2=O)c(O)c1OCC(=O)OCC [Example 64] | 153 to 155 °C
Cc1c(OCC(=O)OCc2ccccc2)ccc(C(=O)CN2Cc3cc(C(=N)NO)ccc3C2=O)c1O (hydrate or solvate) [Example 56] | 200 °C
CCOC(=O)COc1ccc(C(=O)CN2Cc3cc(C(=N)NO)ccc3C2=O)cc1N(CC(=O)OCC)S(C)(=O)=O [Example 40] | 165 to 167 °C
CCOC(=O)COc1ccc(C(=O)CN2Cc3cc(C(=N)N)ccc3C2=O)c(OCC)c1 [Example 76] | 202 to 203 °C
COC(=O)NC(=N)c1ccc2c(c1)CN(CC(=O)c1ccc(OCC(=O)OCc3ccccc3)cc1)C2=O (hydrate or solvate) [Example 18] | 184 to 186 °C
CCOC(=O)COc1ccc(C(=O)CN2Cc3cc(C(=N)NO)ccc3C2=O)c(O)c1C (hydrate or solvate) [Example 55] | 226 to 228 °C
CCOC(=O)COc1ccc(C(=O)CN2Cc3cc(C(=N)N)ccc3C2=O)c(OCC(=O)OCC)c1 (as salt: salt) (hydrate or solvate) [Example 47] | 186 to 188 °C
CC(C)COC(=O)COc1ccc(C(=O)CN2Cc3cc(C(=N)NO)ccc3C2=O)cc1 [Example 15] | 153 to 154 °C
CC(C)COC(=O)NC(=N)c1ccc2c(c1)CN(CC(=O)c1ccc(OCC(=O)OCc3ccccc3)cc1)C2=O (hydrate or solvate) [Example 19] | 162 to 163 °C
CCOC(=O)COc1ccc(C(=O)CN2Cc3cc(C(=N)NO)ccc3C2=O)c(O)c1CC [Example 57] | 196 to 197 °C
CCOC(=O)COc1ccc(C(=O)CN2Cc3cc(-c4noc(C)n4)ccc3C2=O)c(OC(C)=O)c1 [Example 80] | 162 to 164 °C
C=CCOc1cc(OCC(=O)OCC)ccc1C(=O)CN1Cc2cc(C(=N)NO)ccc2C1=O (hydrate or solvate) [Example 83] | 182 to 183 °C
N=C(N)c1ccc2c(c1)CN(CC(=O)N1CCC(OCC(=O)O)CC1)C2=O (as salt: hydrochloride) (hydrate or solvate) [Example 73] | 135 to 136 °C
CC(C)OC(=O)COc1ccc(C(=O)CN2Cc3cc(C(=N)NO)ccc3C2=O)cc1 (hydrate or solvate) [Example 9] | 164 to 166 °C
CCOC(=O)C(CCNC(=O)OCc1ccccc1)Oc1ccc(C(=O)CN2Cc3cc(C(=N)N)ccc3C2=O)cc1 (stereo not drawn) (as salt: salt) [Example 27] | 164 to 165 °C
CCOC(=O)COc1ccc(C(=O)CN2Cc3cc(C(=N)NO)ccc3C2=O)c(O)c1 [Example 42] | 197 to 198 °C
CC(C)COC(=O)NC(=N)c1ccc2c(c1)CN(CC(=O)c1ccc(OCC(=O)OC(C)C)cc1)C2=O (hydrate or solvate) [Example 7] | 155 to 157 °C
COC(=O)COc1ccc(C(=O)CN2Cc3cc(C(=N)N)ccc3C2=O)cc1 (as salt: salt) [Example 1] | 181 to 182 °C

###

Structures can show the parent of a compound that is named as a salt.
Items are presented alongside their recorded melting point.
observed property: melting point

molecule | observed property | reported result
N=C(N)c1ccc2c(c1)CN(CC(=O)c1ccc(OCC(=O)O)cc1O)C2=O (as salt: trifluoroacetate) [Example 44] | melting point | 262 °C (dec.)
CCOC(=O)COc1cc(O)c(C(=O)CN2Cc3cc(C(=N)NO)ccc3C2=O)cc1C(C)C [Example 51] | melting point | 207 to 209 °C
CC(C)OC(=O)COc1ccc(C(=O)CN2Cc3cc(C(=N)N)ccc3C2=O)cc1 (hydrate or solvate) [Example 5] | melting point | 162 °C
CCN(CC)C(=O)COc1ccc(C(=O)CN2Cc3cc(C(=N)N)ccc3C2=O)cc1 (as salt: salt) [Example 25] | melting point | 194 to 195 °C
CCOC(=O)COc1ccc(C(=O)CN2Cc3cc(C(=N)N)ccc3C2=O)cc1Cl (as salt: salt) [Example 30] | melting point | 172 to 173 °C
CCOC(=O)COc1ccc(C(=O)CN2Cc3cc(C(=N)NO)ccc3C2=O)c(O)c1SCC [Example 49] | melting point | 182 to 183 °C
CCOC(=O)COC1CCN(C(=O)CCN2Cc3cc(C(=N)NO)ccc3C2=O)CC1 [Example 69] | melting point | 151 to 152 °C
CCOC(=O)COc1ccc(C(=O)CN2Cc3cc(C(=N)NC(=O)OCC(C)C)ccc3C2=O)cc1Cl [Example 31] | melting point | 178 to 179 °C
CCOC(=O)COc1ccc(C(=O)CN2Cc3cc(C(=N)NO)ccc3C2=O)cc1SCC (hydrate or solvate) [Example 34] | melting point | 190 to 191 °C
CCOC(=O)COC1CCN(C(=O)CN2Cc3cc(C(=N)N)ccc3C2=O)CC1 (as salt: salt) (hydrate or solvate) [Example 71] | melting point | 189 to 190 °C
CCOC(=O)COc1cc(O)c(C(=O)CN2Cc3cc(C(=N)NO)ccc3C2=O)c(O)c1 [Example 63] | melting point | 229 to 230 °C
CCOC(=O)COc1ccc(C(=O)CN2Cc3cc(-c4nc(=O)o[nH]4)ccc3C2=O)c(O)c1 [Example 78] | melting point | 223 to 225 °C
N=C(NO)c1ccc2c(c1)CN(CC(=O)c1ccc(OCC(=O)OCc3ccccc3)cc1O)C2=O [Example 43] | melting point | 183 to 184 °C
CCOC(=O)COC1CCN(C(=O)CN2Cc3cc(C(=N)NO)ccc3C2=O)CC1 [Example 68] | melting point | 204 to 206 °C
CCOC(=O)COc1ccc(C(=O)CN2Cc3cc(C(=N)NO)ccc3C2=O)c(OC)c1 [Example 45] | melting point | 163 to 165 °C
CCOC(=O)C(CCNC(=O)OCc1ccccc1)Oc1ccc(C(=O)CN2Cc3cc(C(=N)NO)ccc3C2=O)cc1 (centres unmarked) [Example 28] | melting point | 174 to 175 °C
CCOC(=O)COc1cc(O)c(C(=O)CN2Cc3cc(C(=N)NO)ccc3C2=O)cc1Cl (hydrate or solvate) [Example 53] | melting point | 227 to 228 °C
COC(=O)NC(=N)c1ccc2c(c1)CN(CC(=O)c1ccc(OCC(=O)OC(C)C)cc1)C2=O [Example 6] | melting point | 183 to 184 °C
CCOC(=O)COc1cc(O)c(C(=O)CN2Cc3cc(C(=N)NO)ccc3C2=O)cc1OCC(=O)OCC (hydrate or solvate) [Example 65] | melting point | 186 to 188 °C
CCCOc1cc(OCC(=O)OCC)ccc1C(=O)CN1Cc2cc(C(=N)NO)ccc2C1=O (hydrate or solvate) [Example 46] | melting point | 175 to 177 °C
CCOC(=O)COc1ccc(C(=O)CN2Cc3cc(C(=N)NO)ccc3C2=O)c(OCC)c1 [Example 75] | melting point | 192 to 194 °C
CCOC(=O)COc1ccc(C(=O)CN2Cc3cc(C(=N)NO)ccc3C2=O)cc1OCC(=O)OCC [Example 21] | melting point | 163 to 164 °C
CCOC(=O)COc1ccc(C(=O)CN2Cc3cc(C(=N)N)ccc3C2=O)cc1 [Example 3] | melting point | 185 to 187 °C
COC(=O)COc1ccc(C(=O)CN2Cc3cc(C(=N)NO)ccc3C2=O)cc1 (hydrate or solvate) [Example 2] | melting point | 175 to 176 °C
CCOC(=O)COc1ccc(C(=O)CN2Cc3cc(C(=N)NO)ccc3C2=O)c(OCC(=O)OCC)c1 [Example 48] | melting point | 139 to 140 °C
CCCc1c(OCC(=O)OCc2ccccc2)ccc(C(=O)CN2Cc3cc(C(=N)NO)ccc3C2=O)c1O [Example 59] | melting point | 199 to 200 °C
